Test system: HLA-A1-restricted VMM15 CTL
Assay: 4-hour chromium release assay, peptide-pulsed C1R-A1 targets with VMM15 CTL
Assay type: cell-based, human
Details: C1R-A1 targets; E:T 10:1; FIG. 8B; read-out: half-maximal lysis, dodecamer
pEC50: −log10 of the molar value.
readout: pEC50

Answer with reported pEC50 of DAEKADICTDEY [dodecamer with alanine replacing the cysteine at position 5] ~7.00
